- Target Of Assay: DR4G102: Human HLA-DRA1*01:02/DRB1*01:01 ECD with collagen II peptide CII_257-273 (human)
- Assay Name: MSD ECL; antigen coated; protocol of Example 3

Binder	ECL signal
DR4B4 (antibody, V domains shown, also called Lym-1 re-engineered as IgG2sigma) VH: QVQLKESGPGLVAPSQSLSITCTISGFSLTSYGVHWVRQPPGKGLEWLVVIWSDGSTTYNSALKSRLSISKDNSKSQVFLKMNSLQTDDTAIYYCASHYGSTLAFASWGHGTLVTVSA VL: DIQMTQSPASLSASVGETVTIICRASVNIYSYLAWYQQKQGKSPQLLVYNAKILAEGVPSRFSGSGSGTQFSLKINSLQPEDFGSYYCQHHYGPFTFGSGTKLEIK	3450 ECL
DR4B127 (antibody, human IgG2, kappa, V domains shown, also called VH DR4H7 / VL PH9L3) VH: QVQLVQSGAEVKKPGSSVKVSCKASGGTFKSYYIHWVRQAPGQGLEWMGGIRPISGNAEYAQKFQGRVTITADESTSTAYMELSSLRSEDTAVYYCARDASYYRNYGFDYWGQGTLVTVSS VL: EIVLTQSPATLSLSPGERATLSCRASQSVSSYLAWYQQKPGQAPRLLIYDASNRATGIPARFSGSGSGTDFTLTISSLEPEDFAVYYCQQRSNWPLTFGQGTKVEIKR	1.08e+06 ECL
DR4B98 (antibody, human IgG2, kappa, V domains shown, also called VH DR4H50 / VL PH9L3) VH: QVQLVQSGAEVKKPGSSVKVSCKASGGTFKSYYIHWVRQAPGQGLEWMGGIAPIYGTAYYAQKFQGRVTITADESTSTAYMELSSLRSEDTAVYYCARDASWARAYGFDYWGQGTLVTVSS VL: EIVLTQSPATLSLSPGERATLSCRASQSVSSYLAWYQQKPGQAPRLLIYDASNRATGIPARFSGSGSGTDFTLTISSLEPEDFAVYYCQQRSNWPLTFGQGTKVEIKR	15000 ECL
DR4B5 (antibody, V domains shown, also called apolizumab (1D10) re-engineered as IgG2sigma) VH: QVQLQESGPGLVKPSETLSLTCTVSGFSLTNYGVHWVRQSPGKGLEWIGVKWSGGSTEYNAAFISRLTISKDTSKNQVSLKLNSLTAADTAVYYCARNDRYAMDYWGQGTLVTVSS VL: DIQMTQSPSSLSASVGDRVTITCRASENIYSYLAWYQQKPGKAPKLLVSNAKTLAEGVPSRFSGSGSGKQFTLTISSLQPEDFATYYCQHHYGNSYPFGQGTKLEIK	62500 ECL
